Where do these numbers come from? They come from the nanobody polyreactivity screen of Harvey et al. (2022).

assay: yeast display, Sf9 membrane polyspecificity reagent, FACS + sequencing; frameworks hold sequencing errors
Parameter: polyreactivity (PSR sort gate)

# example entries with known answers
Sequence Chain: QVQLVESGGGLVQAGGSLRLSCAASGSTFRPNAMGWYRQAPGKERELVAAISRSGVSTYYADSVKGRFTISRDNAKNTVYLQMNSLQPEDTAVYYCARRYTGRPVLRESWGQGTQVTVSS
Parameter: polyreactivity (PSR sort gate)
Result: low polyreactivity
//
Sequence Chain: QFQLVESGGGLVQAGGSLRLSCAASGYIFGRYAMGWYRQPPGKERELVAAISSTGDSTYYADSVKGRFTISRDYAKNTVYLQMNSQKPEDTAVYYCNAVVPRYSYGRYYYWGQGTQVTVSS
Parameter: polyreactivity (PSR sort gate)
Result: high polyreactivity
//
Sequence Chain: QVQLLHSGGGKVQAGGRLRLSCAASGFIFCYYAMGWYRQAPGKERELVATISSGGNTYYADSVKGRFTISRDNAKNTVYLQMNSLKPEDTAVYYCAARWGVRPFYSTQYRYYYWGQGTQVTVSS
Parameter: polyreactivity (PSR sort gate)
Result: high polyreactivity
//
Sequence Chain: QVQLVESGGGLVQAGGSLRLSCAASGSIFASNAMGWYRQAPGKEREFVAAITWRTDRTHYADSVKGRFTISRDNAKNTVYLQMNSLKPEDTAVYYCAADTWFYRFYYWGQGTQVTVSS
Parameter: polyreactivity (PSR sort gate)
Result: high polyreactivity
//
Sequence Chain: QVQLVESGGGLVQAGGSLRLSCAASGITFLYYTRGWYRPAPGKERELVASISRSGNTYYADSVKGRFTISRDNAKNTVYLQMNSLKPEDTAVYYCAAKRKSYYSYNFDYWGQGTQVTVSS
Parameter: polyreactivity (PSR sort gate)
Result: high polyreactivity

Lab note: QVQLVESGGGLVQAGGSLRLSFAASGSIFIRNAMGWYRQAPGKERELVAAISIGDGSTYADSVKGRFTISRDNAKNSVYLQMNSLKPEDTAVYYCNAAGIVWRYYSYGYWGQGTQVTVSS gave polyreactivity (PSR sort gate) of low polyreactivity

Kindly note the recorded polyreactivity (PSR sort gate) for QVQLVESGGGLVQAGGSLRLSCAASGRTFPGNAMGWSRQAPGKERELVATITWSSGRTHYADSVKGRFTISRDNAKNTVYLQMNSLKPEDTAVYYCAAKWIVAVGGFYYWGQGTQVTVSS , which is low polyreactivity

Entry QVQLVESGGGLVQAGGSLRLSCAASGIIFPYYTMGWYRQAPGKERELVARITNGGRTYYADSVKGRFTISRDNAKNTVYLQMISLKPEDTAVYYCNAGRYYIGGYWGQGTQVTVSS ; polyreactivity (PSR sort gate) = high polyreactivity

For record QVQLVESGGGLVQAGGSLRLSCAASGFTFFRYAMGWYRQAPGKERELVAAISWSGGRTYYADSVKGRFTISRDNAKNTVYLQMNSLKPEDTAVYYCAVDYYRSGLHYDSWGQGTQVTVSS the listed polyreactivity (PSR sort gate) is high polyreactivity

Looking up QVQLVESVGGLVQAGGSLRLSCAASGFIFWDYAMGWYRQAPGKERELVAAISDSGGDTYYADSVKGRFTISRDIAKNTVYLQMNSLKPEDTAVYYCAADVELWVFRGQQYDYWGQGTQVTVSS , I see its polyreactivity (PSR sort gate) listed as low polyreactivity

Measured polyreactivity (PSR sort gate), QVQLVESGGGLVQAGGSLRLSCAASGIFVSYAMGWYRQAPGKERELVAAISWNGGSTYYADSVKGRFTISRDNAKNTVYLQMNSLKPEDTAVYDCAARAYFSYRGYVTDYDYWGQGTQVTVSS : high polyreactivity

---

test: yeast display, Sf9 membrane polyspecificity reagent, FACS + sequencing; frameworks hold sequencing errors
Parameter: polyreactivity (PSR sort gate)

Sequence Chain: QVQLVESGGGLVQAGGSLRLSCAASGRTFRVYAMGWYRQAPGKERELVAAISRSTGDTYYADSVKGRFTISRDNAKNSVYLLMNRLKPEDTAVYYCAADVPGGEGDYAYEYWGQGTQVTVSS
polyreactivity (PSR sort gate): low polyreactivity

Sequence Chain: QVQLVESGGGLVQAGGSLRLSCAASGSIFSRYAMGWYRQAPGKERELVAAISTIGGSTYYADSVKGRFTISRDNAKNTVYLQMNSLIPEDTAVYYCNARQTAALTPRYGYWGQGTQVTVSS
polyreactivity (PSR sort gate): high polyreactivity

Sequence Chain: QVQLVESGGGLVQAGGSLRLSCAASGYNFYGYAMGWYRLAPGKERELVAAITVRGGSTYYADSVKGRFTISRDNAKNTVYLQMNCQKPEETAVYYCAAAPQFTFGVGYWGQGTQVTVSS
polyreactivity (PSR sort gate): low polyreactivity

Sequence Chain: QVQLVESGGGLVQAGGSLRLSCAASGSIFTYYAMGWYRQAPGKERELVAAISRRGTRTYYADSVKGRFTISRDNAKNTVYLQMNSLKPEDTAVYYCAAEYTETGTAKMEYWGQGTQVTVSS
polyreactivity (PSR sort gate): high polyreactivity

Sequence Chain: QVQLVESGGGLVQAGGSLRLSCAASGRTFYGYAMGWYRQAPGKEREFVAAINRSGGTTYYADSVKGRFTISRDNAKNTVYLQMNSLKPEDTAVYYCAADYSRIRRWPGYYAYDYWGQGTQVTVSS
polyreactivity (PSR sort gate): high polyreactivity

// QVQLVESGGGLVQAGGSLRLSCAASGRIIVDNAMGWYRQAPGKERELVAAITNGGSTSYADSVKGRFTISRDNAKNTVYLQMNSLKPEDTAVYYCNADEDLRGYDYWGQGTQVTVSS : polyreactivity (PSR sort gate) value = low polyreactivity

Reported polyreactivity (PSR sort gate) of QVQLVESGAGLVQAGGSLRLSCAASGRTFNFYTMGWYRQAPGKERELVAAIDASGGRTYYADSVKGRFTISRDNAKNTVYLQMNSLKPEDTAVYYCAKYPRYSYVGYGYWGQGTQVTVSS : high polyreactivity

Item: QVQLVESGGGLVQAGGSLRLSCAASGRIFYAYAMGWYRPAPGKERELVAAITWRGGRTFYADSVKGRFTISRDNAKNTVYLQMNSLKPEDTAVYYCATRGAPYGMDYWGQGTQVTVSS | polyreactivity (PSR sort gate): high polyreactivity

// QVQLVESGGGLVQAGGSLRLSCAASGLIFKYYAMGWYRPAPGKERELVAAITGRGGSTYYADSVKGRFTISRDNAMNTVYLQMNSLKPEDTAVYYCARRRTYSFNPVTYDWGQGTQVTVSS : polyreactivity (PSR sort gate) value = high polyreactivity

Recorded result, QVQRVESGGGLVQAGGSLRLSCAASGRTFWRNAMGWYRQAPGKERELVARISWSGGSTYYADSVKGRFTISRDNAKNTVYLQMNSLKPEDTAVYYCAKYYPGRSAFSDGNYWVQGTQVTVSS , polyreactivity (PSR sort gate): low polyreactivity

---

assay: yeast display, Sf9 membrane polyspecificity reagent, FACS + sequencing; frameworks hold sequencing errors
Parameter: polyreactivity (PSR sort gate)

Some solved entries appear below for comparison.
Sequence Chain: QVQLVESGAGLVQAGGSLRLSCAASGSIFGPNAMGWYRQAPGKERELVAAISWSGASTYYADSVKGRFTISRDNAMNTVYLQMNSLKPEDTAVYYCAADYYGVSGSGYGYWGQGTQVTVSS
polyreactivity (PSR sort gate): low polyreactivity
//
Sequence Chain: QVQLVESGGGLVQAGGSLLLSCAASGSTFSYYAMGWYRPAPGKERELVATITKRGGSTYYADSVKGRFTISRDNAKNTFYVQLNSLKPEDTAVYDCAASYPSRWRATYPTGFEYWGQGTQVTVSS
polyreactivity (PSR sort gate): high polyreactivity
//
Sequence Chain: QVQLVESGGGLVQAGGSLRLSCAASGSIFSGNAMGWYRQAPGKERELVAAISRSGGSTYYADSVKGRFTISRDYAKNTVYLQMNSLKPEDTAVYYCAKGQYYYIGDYDYWGQGTQVTVSS
polyreactivity (PSR sort gate): high polyreactivity
//
Sequence Chain: QVQLVESGGGLVQAGGSLRLSCAASGSTFYSNAMGWYRQAPGKERELVAAISSTGSSTYYADSVKGRFTISRDNAKNTVYLQMNSLKPEDTAVYYCATDYYQSYWPATYDYWGQGTQVTVSS
polyreactivity (PSR sort gate): low polyreactivity
//
Sequence Chain: QVQLVESGGGLVQAGGSLRLSCAASGSTFGPYAMGWYRQAPGKERELVAAISSGGSTYADSVKGRFTISRDNAKNTVYLQMNSLKPEDTAVYYCAKVHGRGVYSVEYDYWVQGTQVTVSS
polyreactivity (PSR sort gate): low polyreactivity
//
Sequence Chain: QVQLVESGGGLVQAGGSLRLSCAASGRIFTHNVMGWYRQAPGKERELVAAISGGGGSTYYADSVKGRFTISRDNAKNTVYLQMNSLKPEDTAVYYWAAVGFGRQGQEDYWGQGTHVTVSS
polyreactivity (PSR sort gate): low polyreactivity
//
Sequence Chain: QVHLVESGGGLVQAGGSLRLSCAASGNTFYQYAMGWYRQAPGKERELVAAISSSGGSTYYADSVKGRFTISRDNAKNTVYLQMNSLKPEDTAVYYCATDKWYGYYYWGPGTQVTVSS
polyreactivity (PSR sort gate): low polyreactivity
//
Sequence Chain: QVQLVESGGGLVQAGGSLRLTCAASGRIFVKNAMGWYRQAPGKERELVATICSGGNTNYADSVKGRFTISRDNAKNTVYLQMNSLKPEDTAVYYCAAVWDLGDYELPYDYWGLGTQVTVSS
polyreactivity (PSR sort gate): low polyreactivity
//
Sequence Chain: QVQLVESGGGLVQAGGSLRLSCAASGLTFEHNAMGWYRQAPGKETEFVAVISWRGTSTYYADSVKGRFTISRDNAKNTVYLQMNSLKPEDTAVYYCATRYYGDDGYRYDHWGQGTQVTVSS
polyreactivity (PSR sort gate): high polyreactivity
//
Sequence Chain: QGQHVESGGGLVQAGGSLRLSCAASGNILASNGMGWYRQAPGKERELVAAITFSGDTTYYADSVKGRFTISRDNAKNTVYLQMNSLKPEDTAVYYCNDGSFIVNGGYDGDYWGQGTQVTLSS
polyreactivity (PSR sort gate): low polyreactivity

Consider now this further sequence.
Sample QDQLVESGGGKVQAGGSLRLRCAASGRIFQYYTMVWSRQAPGKERELVAGITRGDRTYADSVKGRFTISRDNAKNTVYLQMNSLKQEDTAVYYCNADVYPYTLALPAGMGYWGQGTQVTVSS ; polyreactivity (PSR sort gate) observed: high polyreactivity
